Task for the reader: assign each of the following compounds its reported AC50.
Target: Adenosine receptor A3 (Homo sapiens); note: assay procedure not described here
Sequence (P0DMS8 whole entry): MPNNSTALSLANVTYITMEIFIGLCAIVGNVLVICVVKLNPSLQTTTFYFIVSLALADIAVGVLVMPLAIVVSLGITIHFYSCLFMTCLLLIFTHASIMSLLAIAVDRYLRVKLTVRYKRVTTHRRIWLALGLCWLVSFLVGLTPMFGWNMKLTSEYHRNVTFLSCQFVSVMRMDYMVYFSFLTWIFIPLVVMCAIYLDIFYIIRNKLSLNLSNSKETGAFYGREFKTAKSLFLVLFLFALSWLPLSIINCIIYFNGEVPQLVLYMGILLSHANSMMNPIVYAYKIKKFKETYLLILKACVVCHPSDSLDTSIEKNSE

For each listed entry, give its AC50.
1. O=C(O)COC(=O)Cc1ccccc1Nc1c(Cl)cccc1Cl
2. CC(=O)OCC(=O)[C@@]1(O)CC[C@H]2[C@@H]3CCC4=CC(=O)CC[C@]4(C)[C@@]3(F)[C@@H](O)C[C@@]21C [FLUDROCORTISONE ACETATE]
3. COC(=O)c1ccc2c(c1)NC(=O)/C2=C(\Nc1ccc(N(C)C(=O)CN2CCN(C)CC2)cc1)c1ccccc1
4. CC(=O)SCC(Cc1ccccc1)C(=O)NCC(=O)OCc1ccccc1 (centres undefined)

a:
1. > 30 µM
2. > 30 µM
3. > 30 µM
4. > 30 µM

For each listed entry, give its AC50.
1. CN1C(=O)CN=C(c2ccccc2F)c2cc([N+](=O)[O-])ccc21
2. CC1=C(CC(=O)O)c2cc(F)ccc2/C1=C\c1ccc([S+](C)[O-])cc1 (centres undefined)
3. CN(C)CCC=C1c2ccccc2CCc2ccccc21
4. CCOC(=O)C1=C(C)NC(C)=C(C(=O)OC)C1c1cccc(Cl)c1Cl (centres undefined)

a:
["> 30 µM", "> 30 µM", "14.1 µM", "7.91 µM"]

For each listed entry, give its AC50.
1. CCN1C(=O)NC(c2ccccc2)C1=O (centres undefined)
2. O=C(O)c1nn(Cc2ccc(Cl)cc2Cl)c2ccccc12

a:
1. 12 µM
2. > 30 µM

For each listed entry, give its AC50.
1. CCCCC[C@H](O)CC[C@@H]1[C@H]2Cc3cccc(OCC(=O)O)c3C[C@H]2C[C@H]1O
2. C[C@]12CCC(=O)C=C1C=C[C@@H]1[C@@H]2CC[C@@]2(C)[C@H]1CC[C@@]21CCC(=O)O1
3. CC(C)(C)NCC(O)COc1cccc2c1CC(O)C(O)C2 (centres undefined)
4. CC(C)NCC(O)COc1ccc(CC(N)=O)cc1 (centres undefined)

a:
> 30 µM
> 30 µM
> 10 µM
> 30 µM

For each listed entry, give its AC50.
1. COc1ccc2c3c1O[C@H]1C(=O)CC[C@H]4[C@@H](C2)N(C)CC[C@]314 [HYDROCODONE]
2. Cc1c(C)c2c(c(C)c1O)CCC(C)(COc1ccc(CC3SC(=O)NC3=O)cc1)O2 (centres undefined)
3. CC(=O)OCC1=C(C(=O)O)N2C(=O)[C@@H](NC(=O)Cc3cccs3)[C@H]2SC1
4. C[C@H](CS)C(=O)N1CCC[C@H]1C(=O)O
5. C[C@]12CCC(=O)C=C1[C@@H]1C[C@@H]1[C@H]1[C@@H]3[C@@H]4C[C@@H]4[C@@]4(CCC(=O)O4)[C@@]3(C)CC[C@@H]12

a:
> 30 µM
8.48 µM
> 30 µM
> 30 µM
> 30 µM

---

Target: UniProtKB P18825
Sequence (P18825 whole entry): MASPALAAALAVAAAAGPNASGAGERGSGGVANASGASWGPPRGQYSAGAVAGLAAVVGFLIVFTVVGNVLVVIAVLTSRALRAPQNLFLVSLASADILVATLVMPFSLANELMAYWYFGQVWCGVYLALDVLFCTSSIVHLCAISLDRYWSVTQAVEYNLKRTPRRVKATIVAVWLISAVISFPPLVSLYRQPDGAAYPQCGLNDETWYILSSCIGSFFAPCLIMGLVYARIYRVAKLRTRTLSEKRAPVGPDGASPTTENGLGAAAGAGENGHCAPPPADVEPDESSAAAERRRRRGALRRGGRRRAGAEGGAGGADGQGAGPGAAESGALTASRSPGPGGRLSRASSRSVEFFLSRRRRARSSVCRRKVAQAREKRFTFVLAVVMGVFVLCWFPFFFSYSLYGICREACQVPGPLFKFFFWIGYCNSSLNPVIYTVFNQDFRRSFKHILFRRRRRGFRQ
Assay type: functional
Where a SMILES comes first, the peptide text is derived from it.
Task for the reader: assign each of the following compounds its reported AC50.

[[record]]
compound = "CCOC(=O)[C@H](CCc1ccccc1)N[C@@H](C)C(=O)N1Cc2ccccc2C[C@H]1C(=O)O"
result = "> 10 µM"

[[record]]
compound = "CN(C)CCc1c[nH]c2ccc(CS(=O)(=O)N3CCCC3)cc12"
result = "> 30 µM"

[[record]]
compound = "CCN(C(C)=O)c1cccc(-c2ccnc3c(C#N)cnn23)c1"
result = "> 10 µM"

[[record]]
compound = "COc1ccc(-c2cc(=S)ss2)cc1"
result = "> 30 µM"


For each listed entry, give its AC50.
1. Nc1ccc(S(=O)(=O)Nc2ncccn2)cc1
2. Nc1cc(N2CCCCC2)nc(N)[n+]1[O-]
3. CN1C(=O)CN=C(c2ccccc2F)c2cc([N+](=O)[O-])ccc21
4. CC(=O)SCC(Cc1ccccc1)C(=O)NCC(=O)OCc1ccccc1 (stereo unspecified)
5. C[C@H](N)C(=O)N[C@@H](CCC(N)=O)C(=O)O [ALANYL GLUTAMINE] (H-Ala-Gln-OH)
6. OCCN(CCO)c1nc(N2CCCCC2)c2nc(N(CCO)CCO)nc(N3CCCCC3)c2n1

a:
["> 10 µM", "> 10 µM", "> 10 µM", "> 30 µM", "> 30 µM", "> 30 µM"]

For each listed entry, give its AC50.
1. CCCCOC(=O)C(=O)Nc1cccc(-c2nnn[nH]2)c1
2. C=CC1=C(C(=O)O)N2C(=O)[C@@H](NC(=O)/C(=N\O)c3csc(N)n3)[C@H]2SC1
3. CCN1C(=O)NC(c2ccccc2)C1=O (stereo unspecified)
4. CC1=C(CC(=O)O)c2cc(F)ccc2/C1=C\c1ccc([S+](C)[O-])cc1 (stereo unspecified)
5. CC(=O)Oc1ccccc1C(=O)O
6. CN1CCN2c3ccccc3Cc3ccccc3C2C1 (stereo unspecified)

a:
1. > 30 µM
2. > 10 µM
3. > 30 µM
4. > 10 µM
5. > 10 µM
6. 0.05 µM

For each listed entry, give its AC50.
1. CC(=O)[C@@]1(O)CC[C@H]2[C@@H]3C[C@H](C)C4=CC(=O)C=C[C@]4(C)[C@@]3(F)[C@@H](O)C[C@@]21C
2. CN(C)CCCC1(c2ccc(F)cc2)OCc2cc(C#N)ccc21 (stereo unspecified)
3. Cc1nnc2n1-c1ccc(Cl)cc1C(c1ccccc1)=NC2
4. CC(C)(CO)c1cc2cc(NC(=O)C3(c4ccc5c(c4)OC(F)(F)O5)CC3)c(F)cc2n1C[C@@H](O)CO

a:
> 10 µM
> 10 µM
> 10 µM
> 30 µM

For each listed entry, give its AC50.
1. COc1cccc2c1C(=O)c1c(O)c3c(c(O)c1C2=O)C[C@@](O)(C(=O)CO)C[C@@H]3O[C@H]1C[C@H](N)[C@H](O)[C@H](C)O1
2. CC1CC(OC(=O)C(O)c2ccccc2)CC(C)(C)C1 (stereo unspecified) [CYCLANDELATE]

a:
["> 30 µM", "> 10 µM"]

---

Target: 5-hydroxytryptamine receptor 2B (Homo sapiens); note: assay procedure not described here
Sequence (P41595 whole entry): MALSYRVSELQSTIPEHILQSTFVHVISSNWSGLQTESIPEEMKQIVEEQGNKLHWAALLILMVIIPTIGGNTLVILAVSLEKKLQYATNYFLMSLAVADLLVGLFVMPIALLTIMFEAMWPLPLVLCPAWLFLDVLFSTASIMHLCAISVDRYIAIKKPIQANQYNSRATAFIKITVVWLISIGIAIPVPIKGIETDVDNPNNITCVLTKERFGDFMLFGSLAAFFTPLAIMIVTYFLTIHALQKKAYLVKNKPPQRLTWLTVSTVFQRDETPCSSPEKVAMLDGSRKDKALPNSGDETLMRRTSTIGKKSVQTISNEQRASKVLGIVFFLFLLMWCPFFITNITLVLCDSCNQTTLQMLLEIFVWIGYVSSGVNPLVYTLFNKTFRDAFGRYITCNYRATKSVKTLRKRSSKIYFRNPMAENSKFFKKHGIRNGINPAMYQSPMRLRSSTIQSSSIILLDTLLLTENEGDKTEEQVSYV
Type: functional, cell-based
Task for the reader: assign each of the following molecules its reported AC50.

Recorded results for 5 molecules are shown here.
[[record]]
molecule = "CCCCCCOC(=O)NC(=N)c1ccc(NCc2nc3cc(C(=O)N(CCC(=O)OCC)c4ccccn4)ccc3n2C)cc1 [DABIGATRAN ETEXILATE]"
result = "> 30 µM"

[[record]]
molecule = "C#CCN(C)Cc1ccccc1"
result = "> 30 µM"

[[record]]
molecule = "O=C1[C@@H]2[C@H]3CC[C@H](C3)[C@@H]2C(=O)N1C[C@@H]1CCCC[C@H]1CN1CCN(c2nsc3ccccc23)CC1"
result = "> 30 µM"

[[record]]
molecule = "Cc1ccc(O)c([C@H](CCN(C(C)C)C(C)C)c2ccccc2)c1"
result = "> 10 µM"

[[record]]
molecule = "CCCO[C@H]1[C@@H]([C@@H](COCc2ccc(Cl)cc2)OCc2ccc(Cl)cc2)OC(OCC)[C@@H]1O (stereo partly drawn) [CLOBENOSIDE]"
result = "> 30 µM"


For each listed entry, give its AC50.
1. OCCOCCN1CCN(C(c2ccccc2)c2ccc(Cl)cc2)CC1 (stereo not drawn) [HYDROXYZINE]
2. Oc1cc(Cl)ccc1Oc1ccc(Cl)cc1Cl
3. CN(C)CCOC(=O)C(c1ccccc1)C1(O)CCCC1 (stereo not drawn) [CYCLOPENTOLATE]

a:
["> 10 µM", "> 30 µM", "> 10 µM"]

---

Target: Cannabinoid receptor 1 (Homo sapiens); note: assay procedure not described here
Sequence (P21554 whole entry): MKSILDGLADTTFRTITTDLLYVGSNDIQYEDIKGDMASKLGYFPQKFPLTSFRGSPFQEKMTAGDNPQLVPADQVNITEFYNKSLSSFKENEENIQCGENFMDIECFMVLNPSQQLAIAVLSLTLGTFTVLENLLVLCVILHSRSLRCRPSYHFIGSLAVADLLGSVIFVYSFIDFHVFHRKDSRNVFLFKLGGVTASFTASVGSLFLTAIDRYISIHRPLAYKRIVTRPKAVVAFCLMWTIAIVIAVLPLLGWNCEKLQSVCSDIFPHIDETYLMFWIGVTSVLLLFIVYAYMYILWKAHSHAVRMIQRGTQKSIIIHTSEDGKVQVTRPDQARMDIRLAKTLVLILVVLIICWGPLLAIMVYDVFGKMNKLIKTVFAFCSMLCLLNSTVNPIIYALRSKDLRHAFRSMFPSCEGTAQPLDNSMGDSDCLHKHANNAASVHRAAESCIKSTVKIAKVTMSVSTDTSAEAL
Format: functional
Task for the reader: assign each of the following molecules its reported AC50.

Recorded results for 5 molecules are shown here.
[[record]]
molecule = "CN1C2CCCC1CC(NC(=O)c1nn(C)c3ccccc13)C2 (stereo not drawn)"
experimental_endpoint = "AC50"
result = "> 10 µM"

[[record]]
molecule = "CC(NC(C)(C)C)C(=O)c1cccc(Cl)c1 (stereo not drawn)"
experimental_endpoint = "AC50"
result = "> 10 µM"

[[record]]
molecule = "CCOC(=O)[C@H](CCc1ccccc1)N[C@@H](C)C(=O)N1Cc2ccccc2C[C@H]1C(=O)O"
experimental_endpoint = "AC50"
result = "> 10 µM"

[[record]]
molecule = "NCC1(CC(=O)O)CCCCC1"
experimental_endpoint = "AC50"
result = "> 10 µM"

[[record]]
molecule = "Cc1ccc(-c2ncc(Cl)cc2-c2ccc(S(C)(=O)=O)cc2)cn1"
experimental_endpoint = "AC50"
result = "> 10 µM"


For each listed entry, give its AC50.
1. Cc1ccc(O)c([C@H](CCN(C(C)C)C(C)C)c2ccccc2)c1
2. N=C(N)NC(=O)c1nc(Cl)c(N)nc1N [AMILORIDE]
3. CC(=O)Oc1ccccc1C(=O)O

a:
> 10 µM
> 10 µM
> 10 µM
